Entries and their measured Luciferase activation plate bound 33 nM IgG, FOC follow.
Biological target: human TREM2/DAP12 fusion protein (human, UniProt O43914 41-113, limits assumed)
Sequence (O43914 other isoform, or with tags, fused parts or gaps limits assumed): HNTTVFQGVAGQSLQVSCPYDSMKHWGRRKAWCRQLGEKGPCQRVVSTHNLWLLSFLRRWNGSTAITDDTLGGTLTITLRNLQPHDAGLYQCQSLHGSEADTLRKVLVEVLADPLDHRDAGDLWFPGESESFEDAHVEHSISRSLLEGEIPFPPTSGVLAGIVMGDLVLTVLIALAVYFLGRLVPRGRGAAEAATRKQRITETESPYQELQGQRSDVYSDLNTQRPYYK
Assay: cell-based or functional assay
Supply the numeric figure in FOC, leaving out any unit text.

AL2p-10 (antibody, V domains shown, Fab and IgG formats under one id) VH: QVQLVQSGAEVKKPGSSVKVSCKASGYAFSSDWMNWVRQAPGQGLEWMGRIYPGDGDTNYAQKFQGRVTITADESTSTAYMELSSLRSEDTAVYYCARLLRNQPGESYAMDYWGQGTLVTVSS VL: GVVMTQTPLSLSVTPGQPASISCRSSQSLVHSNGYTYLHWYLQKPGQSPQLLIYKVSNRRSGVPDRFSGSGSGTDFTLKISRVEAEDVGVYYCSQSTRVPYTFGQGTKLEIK ... 4.63
AL2p-2 (antibody, V domains shown, AL2p-h50 variant; Fab and IgG formats under one id) VH: QVQLVQSGAEVKKPGSSVKVSCKASGYAFSSSWMNWVRQAPGQGLEWMGRIYPGGGDTNYAQKFQGRVTITADESTSTAYMELSSLRSEDTAVYYCARLLRNQPGESYAMDYWGQGTLVTVSS VL: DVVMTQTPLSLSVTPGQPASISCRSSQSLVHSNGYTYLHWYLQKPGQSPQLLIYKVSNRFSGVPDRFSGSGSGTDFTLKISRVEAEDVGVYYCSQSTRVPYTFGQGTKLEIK ... 7.36

For this binder ( AL2p-4 (antibody, V domains shown) VH: QVQLVQSGAEVKKPGSSVKVSCKASGYAFSSSWMNWVRQAPGQGLEWMGRIYPGQGDTNYAQKFQGRVTITADESTSTAYMELSSLRSEDTAVYYCARLLRNQPGESYAMDYWGQGTLVTVSS VL: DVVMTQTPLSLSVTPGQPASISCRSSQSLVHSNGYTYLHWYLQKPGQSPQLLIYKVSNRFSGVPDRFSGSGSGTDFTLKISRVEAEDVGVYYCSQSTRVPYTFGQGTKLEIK ), measured Luciferase activation plate bound 33 nM IgG, FOC is 7.42
